- Test system: SW480 (colon cancer)
- assay.comment: Antiproliferative activity, CCK-8 cell viability
- Assay type: cell-based
- measurement.setup: Homo sapiens, compound concentration of 3.3 μM, 72 h, read-out: Inhibition of Cancerous Cells, SW480
experimental.readout: inhibition at 3.3 µM

For reference, reported inhibition at 3.3 µM for CC1=C(CC(=O)O)c2cc(F)ccc2/C1=C\c1ccc(Oc2ccc(F)cc2)cc1C stands at 30 to 50%

Please fill in: inhibition at 3.3 µM reported for CC1=C(CC(=O)O)c2cc(F)ccc2/C1=C\c1cccc(Oc2cccc(C(F)(F)F)c2)c1 = 30 to 50%

Lab note: COc1cccc2c1C(CC(=O)O)=C(C)/C2=C/c1ccc(COc2ccccc2)cc1 gave inhibition at 3.3 µM of ≥ 50%

response.value for CC1=C(CC(=O)O)c2cc(F)cc(F)c2/C1=C\c1cccc(Oc2ccccc2)c1 (field: inhibition at 3.3 µM) = ≥ 50%

The reported value for O=C(O)CC1=C/C(=C/c2ccc(Oc3ccc(F)cc3)cc2)c2ccccc21 in terms of inhibition at 3.3 µM is < 30%

====

- Test system: SW480 (colon cancer)
- assay.comment: Antiproliferative activity, CCK-8 cell viability
- Format: cell-based
- measurement.setup: Homo sapiens, compound concentration of 10 μM, 72 h, read-out: Inhibition of Cancerous Cells, SW480
experimental.readout: inhibition at 10 µM

Example cases with answers are listed next.
For CC1=C(CC(=O)O)c2cc(F)ccc2/C1=C\c1cccc(OCc2ccccc2)c1 [Compound A4] the compound record lists inhibition at 10 µM as ≥ 50%

Lab book: inhibition at 10 µM of CC1=C(CC(=O)O)c2cc(F)ccc2/C1=C\c1cccc(Oc2ccc(Cl)cc2)c1 [Compound D25] noted as ≥ 50%

Record CC1=C(CC(=O)O)c2cc(F)ccc2/C1=C\c1cccc(COc2ccc(F)cc2)c1 [Compound A6] , field inhibition at 10 µM: ≥ 50%

get_value(item= CC1=C(CC(=O)O)c2cc(F)ccc2/C1=C\c1cccc(CCc2ccccc2)c1 [Compound A17] , readout=inhibition at 10 µM) returns ≥ 50%

Sample CC1=C(CC(=O)O)c2cc(F)ccc2/C1=C\c1cccc(COc2ccc(C(F)(F)F)cc2)c1 [Compound A21] ; inhibition at 10 µM observed: ≥ 50%

Data point: CC1=C(CC(=O)N(C)O)c2cc(F)ccc2/C1=C\c1ccc(Oc2ccc(F)cc2)cc1 [Compound B2] ; inhibition at 10 µM = ≥ 50%

What the record says about CC1=C(CC(=O)O)c2cc(F)ccc2/C1=C\c1cccc(COc2ccccc2)c1 [Compound A5] : inhibition at 10 µM is ≥ 50%

Sample CC1=C(CC(=O)O)c2cc(F)ccc2/C1=C\c1ccc(Oc2ccc(F)c(F)c2)cc1 [Compound D5] ; inhibition at 10 µM observed: ≥ 50%

Lab note: measured inhibition at 10 µM of CC1=C(CC(=O)O)c2cc(F)cc(F)c2/C1=C/c1cccc(Oc2ccccc2)c1 [Compound E7] was ≥ 50%

// field: inhibition at 10 µM; key: CC1=C(CC(=O)O)c2cc(F)ccc2/C1=C\c1ccc(CN(C)c2ccccc2)cc1 [Compound A9] ; value = ≥ 50%

New cases:
// recorded inhibition at 10 µM for CC1=C(CC(=O)O)c2cc(F)ccc2/C1=C\c1ccc(CN(Cc2ccccc2)c2ccccc2)cc1 [Compound A10] : ≥ 50%

// inhibition at 10 µM lookup, compound = CC1=C(CC(=O)O)c2cc(F)cc(F)c2/C1=C\c1cccc(Oc2ccccc2)c1 [Compound D20] , result: ≥ 50%

The value of inhibition at 10 µM measured for the compound CC1=C(CC(=O)O)c2cc(F)ccc2/C1=C\c1ccc(Oc2ccc(F)cc2)cc1C(F)(F)F [Compound D12] turned out to be ≥ 50%

Reported inhibition at 10 µM ( CC1=C(CC(=O)N(C)O)c2cc(F)ccc2/C1=C\c1ccc(Oc2ccccc2)cc1 [Compound B1] ) = ≥ 50%

Record summary for CC1=C(CC(=O)O)c2cc(F)ccc2/C1=C\c1cccc(CN(C)c2ccccc2)c1 [Compound A16] : reported inhibition at 10 µM = ≥ 50%

// sample CC1=C(CC(=O)O)c2cc(F)ccc2/C1=C\c1cccc(Oc2cccc(C(F)(F)F)c2)c1 [Compound D27] , its inhibition at 10 µM was ≥ 50%

Measured values drawn from patent US20240116845A1 for this set.
